Molecular target: CHIP (Homo sapiens, UniProt Q9UNE7)
Construct: N-term truncated CHIP (also known as STUB1, Uniprot ID: Q9UNE7, residues 23-303); made in house; host or cells: E. coli BL21 CodonPlus
Sequence (Q9UNE7 23-303): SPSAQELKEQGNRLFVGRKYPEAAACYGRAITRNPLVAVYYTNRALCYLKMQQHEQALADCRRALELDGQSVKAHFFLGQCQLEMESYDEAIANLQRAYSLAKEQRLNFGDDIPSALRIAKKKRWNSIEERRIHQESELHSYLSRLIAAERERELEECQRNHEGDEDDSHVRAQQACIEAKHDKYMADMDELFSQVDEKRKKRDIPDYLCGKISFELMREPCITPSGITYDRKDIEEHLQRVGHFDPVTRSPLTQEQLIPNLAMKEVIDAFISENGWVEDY
Test: Naive Library Presenter Screening (phage, NGS), CHIP
Assay type: binding
Details: CHIP clusters (C83, C84); target concentration 1000 nM, first column
Numbered stars: 1 amine (or outer) side, 2 acyl side, 3 side chain; on linkers, the order of the positions; unused ones are H or OH. Bridge positions count the residues as written; N and C are the ends. Ends that are not written are not given here. Phenylene(1,4-NHCOCH2)2 = O=C(C[*:1])Nc1ccc(NC(=O)C[*:2])cc1
metric-name: interaction data at Target Concentration 1000

| monomer-sequence | assay-value |
| --- | --- |
| DPASQWCQRAASICWID (DPASQWCQRAASICWID-NH2; linker 7-14 via Phenylene(1,4-NHCOCH2)2 (inferred)) | 18 |

(P) DPAYDVCHFAAHICWID (linker 7-14 via Phenylene(1,4-NHCOCH2)2 (inferred))
(Q) DPAFFECVRAASICMVD (linker 7-14 via Phenylene(1,4-NHCOCH2)2 (inferred))
(R) DPAFWRCQFAAATCEHT (linker 7-14 via Phenylene(1,4-NHCOCH2)2 (inferred))
(S) DPAFTACQFAAAMCDSS (linker 7-14 via Phenylene(1,4-NHCOCH2)2 (inferred))
Input line: Hey, quick one: sort these by interaction data at Target Concentration 1000, largest value first please. Put the labels in the order asked and list them.
Output line: R, Q, P, S

(1) DPALEECTQAAHICMVD (linker 7-14 via Phenylene(1,4-NHCOCH2)2 (inferred); not fully specified (C-terminus))
(2) DPAFEVCQFAAATCSSN (linker 7-14 via Phenylene(1,4-NHCOCH2)2 (inferred))
Input line: Given the listed records, identify the one among 1 and 2 with higher interaction data at Target Concentration 1000. Mark your answer with the label of the selected entry.
Output line: 1

----------
Molecular target: CDK2 (Homo sapiens, UniProt P24941)
Experiment: Phage Library Screening with NGS, CDK2
Type: binding
Parameters: Full length CDK2 (residues 1-298) with an N-terminal GST-3C-6×his-TEV tag; GST-3C-6×his-TEV (N, cleaved yes); made in house; host or cells: Sf9 (Bac-to-Bac baculovirus)
Settings: CDK2, target concentration 300
Numbered stars: 1 amine (or outer) side, 2 acyl side, 3 side chain; on linkers, the order of the positions; unused ones are H or OH. Bridge positions count the residues as written; N and C are the ends. Ends that are not written are not given here. Phenylene(1,4-NHCOCH2)2 = O=C(C[*:1])Nc1ccc(NC(=O)C[*:2])cc1
metric-name: phage screen counts, Target Concentration 300

(1) DPAWWMCTIAAIECETT (linker 7-14 via Phenylene(1,4-NHCOCH2)2 (inferred))
(2) PFECLSAFFSC (linker 4-11 via Phenylene(1,4-NHCOCH2)2 (inferred))
(3) CLSAFFSCTY (linker 1-8 via Phenylene(1,4-NHCOCH2)2 (inferred); not fully specified (C-terminus))
(4) YECLEAFFNC (linker 3-10 via Phenylene(1,4-NHCOCH2)2 (inferred))
Input line: Lab note: phage screen counts, Target Concentration 300 ranking, ascending, for the listed sequences. Put the labels in the order asked and list them.
Output line: 3, 2, 4, 1
(3: 0, 2: 1, 4: 2, 1: 973)
